Entry source: patent US7569562B2

# System: gamma secretase cleavage of NotchΔE (ZEDN1)
# EXPERIMENTAL DETAILS: Notch Signaling Assay for Selective Inhibitors of Gamma Secretase (reporter gene based)
# Format: cell-based
# RUN CONDITIONS: Rattus norvegicus; assay not given; it follows the Notch signaling (4xwtCBF1 Luciferase reporter) method
pIC50: −log10 of the molar value.
Recorded pIC50, one value per entry.

Some compounds with recorded pIC50:
- COMPOUND: "CC(=Cc1ccccc1)CN([C@@H]1CCCCNC1=O)S(=O)(=O)c1ccc(Cl)nc1"
  MEASURED TARGET: "gamma secretase cleavage of NotchΔE (ZEDN1)"
  pIC50: "7.00 to 9.00"
- COMPOUND: "O=C1NCCCC[C@H]1N(Cc1ccc(Br)cc1)S(=O)(=O)c1ccc(Cl)s1"
  MEASURED TARGET: "gamma secretase cleavage of NotchΔE (ZEDN1)"
  pIC50: "6.00 to 7.00"
- COMPOUND: "O=C1NCCCC[C@H]1N(Cc1ccc(Br)cc1)S(=O)(=O)c1cccnc1"
  MEASURED TARGET: "gamma secretase cleavage of NotchΔE (ZEDN1)"
  pIC50: "6.00 to 7.00"
- COMPOUND: "Cn1nnc2cc(CN([C@@H]3CCCCNC3=O)S(=O)(=O)c3ccc(Cl)s3)ccc21"
  MEASURED TARGET: "gamma secretase cleavage of NotchΔE (ZEDN1)"
  pIC50: "6.00 to 7.00"
- COMPOUND: "O=C1NCCCC[C@H]1N(CC=Cc1cccnc1)S(=O)(=O)c1ccc(Cl)nc1"
  MEASURED TARGET: "gamma secretase cleavage of NotchΔE (ZEDN1)"
  pIC50: "7.00 to 9.00"

Prompt: Quick check: pIC50 of `Cc1ccc(S(=O)(=O)N(Cc2ccc(Br)cc2)[C@@H]2CCCCNC2=O)s1` ?
Response: < 6.00

Prompt: Also, O=C1NCCCC[C@H]1N(CC1CCCCO1)S(=O)(=O)c1ccc(Cl)nc1 (some centres unmarked) please.
Response: < 6.00

Prompt: Next record, please: `Cn1nnc2cc(CN([C@@H]3CCCCNC3=O)S(=O)(=O)c3ccc(Cl)nc3)ccc21`
Response: 7.00 to 9.00
